# System: Piricularia oryzae (rice blast)
# assay protocol: whole plant or invertebrate
# condition details: Pyricularia oryzae, 48 h, read-out: Preventive value
measure name: pest or weed control at 500 ppm (%)

compound	observed
CCCCCCCCCCCC(=O)NC(Cc1ccccc1)C(=O)O (stereo not shown) [compound 8]	67
CCCCCCCCCCCC(=O)N[C@H](C(=O)O)C(C)C [compound 2]	80
CCCCCCCCCCCC(=O)N[C@H](C(=O)O)[C@@H](C)O [compound 11]	77
CCCCCCCCCCCC(=O)N[C@H](C(=O)OCC)C(C)C [compound 19]	78
CCCCCCCCCCCC(=O)N[C@@H](CCCN)C(=O)OC [compound 24]	78
CCCCCCCCCCCCCC(=O)N[C@@H](CCCCN)C(=O)OC [compound 23]	82
CCCCCCCCCCCCCCCCCC(=O)N[C@@H](CCCNC(=N)N)C(=O)OCC [compound 28]	78
CCCCCCCCCCCCCCCCCC(=O)N[C@@H](Cc1ccccc1)C(=O)O [compound 4]	78
CCCCCCCCCCCC(=O)N(C)CC(=O)O [compound 15]	88
CCCCCCCCCC(=O)N[C@@H](Cc1ccccc1)C(=O)O [compound 12]	65
C=CCCCCCCCCC(=O)N[C@@H](CC(C)C)C(=O)O [compound 14]	83
CCCCCCCCCCCCCC(=O)N[C@@H](CCC(=O)O)C(=O)O [compound 20]	70
CCCCCCCCCCCCCCCCCC(=O)NC(C)C(=O)O (stereo not shown) [compound 7]	82
